# Tested on: bovine tubulin
# ASSAY REMARKS: In vitro tubulin polymerization assay (turbidity at 340 nm)
# Assay type: biochemical
# MEASUREMENT SETUP: 10 μM compound, 30 minute data point, vs 1% DMSO control
Think of 60% as a floor: if Tubulin Assay: percent inhibition at 10 μM based on 30 minute data stands on it or above, it is met; beneath it, not met.

INSERT INTO assay_data (compound, classification) VALUES
  ('COc1cccc(Nc2ncc(-c3ccccc3OCc3ccncc3)o2)c1', 'not met'),
  ('c1cnc(NCc2ccc3c(c2)OCCO3)c(-c2nnc(Nc3ccc4c(c3)OCO4)[nH]2)c1', 'met'),
  ('COc1cc(CNc2ccccc2-c2nnc(Nc3ccc4c(c3)OCCO4)o2)cc(OC)c1', 'met'),
  ('COc1cc(Nc2ncccc2-c2nnc(NCC3CCCO3)[nH]2)cc(OC)c1 (centres unmarked)', 'met'),
  ('COc1cc(Nc2ncccc2-c2nnc(Nc3cccc(NS(=O)(=O)c4ccc5c(c4)OCCO5)c3)[nH]2)cc(OC)c1', 'not met'),
  ('c1cncc(CNc2ncccc2-c2nnc(Nc3ccc4c(c3)OCCO4)o2)c1', 'met'),
  ('COc1cccc(Nc2nnc(-c3cccnc3NCc3cccnc3)o2)c1', 'not met');

====

# Test system: bovine tubulin
# ASSAY REMARKS: In vitro tubulin polymerization assay (turbidity at 340 nm)
# Assay type: biochemical
# MEASUREMENT SETUP: 10 μM compound, 30 minute data point, vs 1% DMSO control
OBSERVABLE: Tubulin Assay: percent inhibition at 10 μM based on 30 minute data (%)

INSERT INTO measurements (compound, readout_unit, observed_value) VALUES
  ('c1cncc(COc2ccccc2-c2cnc(Nc3ccc4c(c3)OCCO4)o2)c1 [Compound 254]', '%', 95),
  ('COc1ccc(Nc2nnc(-c3cccnc3NCc3cccnc3)o2)cc1OC [Compound 190]', '%', 56),
  ('c1ccc(-c2nnc(Nc3ccc4c(c3)OCCO4)o2)c(NCc2ccc3[nH]ncc3c2)c1 [Compound 222]', '%', 95),
  ('N#Cc1ccc(S(=O)(=O)Nc2ccccc2-c2nnc(Nc3ccc4c(c3)OCCO4)o2)cc1 [Compound 242]', '%', 92),
  ('COc1cccc(Nc2nnc(-c3ccccc3NCc3ccncc3)o2)c1 [Compound 228]', '%', 57),
  ('COc1cccc(Nc2nnc(-c3cccnc3NCC3COCCO3)[nH]2)c1 (centres unmarked) [Compound 46]', '%', 25),
  ('COc1ccc(S(=O)(=O)Nc2ccccc2-c2nnc(Nc3ccc4c(c3)OCO4)o2)cc1OC [Compound 238]', '%', 65),
  ('COc1cc(Nc2ncccc2-c2nnc(NS(=O)(=O)c3cccc(OC)c3)o2)cc(OC)c1 [Compound 243]', '%', 55),
  ('c1ccc(-c2nnc(Nc3ccc4c(c3)OCCO4)o2)c(NCc2cn[nH]c2)c1 [Compound 223]', '%', 84),
  ('COc1cccc(Nc2ncc(-c3ccccc3OCc3cccnc3)o2)c1 [Compound 257]', '%', 27),
  ('COc1cc(CNc2ncccc2-c2nnc(Nc3ccc4c(c3)OCO4)o2)cc(OC)c1 [Compound 182]', '%', 84),
  ('COc1cc(Nc2nnc(-c3ccccc3NCc3ccc(F)c(F)c3)[nH]2)cc(OC)c1 [Compound 120]', '%', 63),
  ('COc1cccc(Nc2nnc(-c3cccnc3OCc3ccc4c(c3)OCO4)[nH]2)c1 [Compound 73]', '%', 70),
  ('Fc1ccc(CNc2ncccc2-c2nnc(-c3ccc4c(c3)OCO4)[nH]2)cc1F [Compound 101]', '%', 66),
  ('c1cncc(CNc2ccccc2-c2nnc(Nc3ccc4c(c3)OCCO4)o2)c1 [Compound 216]', '%', 94),
  ('COc1cccc(-c2nnc(-c3cccnc3NCc3ccco3)[nH]2)c1 [Compound 95]', '%', 41),
  ('COc1cccc(Nc2nnc(-c3cccnc3NCc3cc(OC)cc(OC)c3)[nH]2)c1 [Compound 23]', '%', 22);

====

# Tested on: bovine tubulin
# ASSAY REMARKS: In vitro tubulin polymerization assay (turbidity at 340 nm)
# Assay type: biochemical
# MEASUREMENT SETUP: 10 μM compound, 30 minute data point, vs 1% DMSO control
OBSERVABLE: Tubulin Assay: percent inhibition at 10 μM based on 30 minute data (%)

INSERT INTO results (compound, observed_value) VALUES
  ('CS(=O)(=O)c1ccc(-c2nnc(-c3cccnc3NCc3ccc4c(c3)CCO4)[nH]2)cc1 [Compound 97]', 77),
  ('COc1cc(Nc2ncccc2-c2nnc(Nc3ccc4c(c3)OCCO4)o2)cc(OC)c1 [Compound 193]', 69),
  ('CN(C)c1ccc(-c2nnc(Nc3ccc4c(c3)OCCO4)o2)c(NCc2cccnc2)c1 [Compound 229]', 32),
  ('COc1cc(Nc2nnc(-c3cccnc3Nc3cc(OC)cc(OC)c3)[nH]2)cc(OC)c1 [Compound 1]', 45),
  ('COc1cccc(CNc2ncccc2-c2nnc(Nc3ccc4c(c3)OCCO4)[nH]2)c1 [Compound 52]', 35),
  ('FC(F)(F)c1ccc(-c2nnc(-c3cccnc3NCc3ccc4c(c3)OCO4)[nH]2)cc1 [Compound 84]', 27),
  ('COc1ccc(CNc2ncccc2-c2nnc(Nc3ccc4c(c3)OCCO4)o2)cc1OC [Compound 165]', 86),
  ('O=C1CCCN1CCCNc1ncccc1-c1nnc(Nc2ccc3c(c2)OCO3)o1 [Compound 194]', 80);

====

# System: A431, human epidermoid carcinoma cells
# ASSAY REMARKS: Cell cycle analysis (FACS), mitotic arrest in G2/M
# Type: cell-based
# MEASUREMENT SETUP: Homo sapiens, A-431, 24 h, read-out: FACS Assay: concentration required to achieve inhibition in FACS assay
Recorded minimal effective concentration values for a group of compounds are listed next.
OBSERVABLE: minimal effective concentration (µM)

INSERT INTO results (smiles_code, observed_value) VALUES
  ('COc1ccc(Nc2nnc(-c3cccnc3NCc3ccc4c(c3)OCO4)[nH]2)cc1', 10),
  ('COc1cccc(CNc2nnc(-c3cccnc3Nc3cc(OC)cc(OC)c3)[nH]2)c1', 0.1),
  ('COc1ccc(CNc2ncccc2-c2nnc(Nc3ccc4c(c3)OCCO4)o2)cc1', 0.1),
  ('COc1cccc(-c2nnc(-c3ccccc3NCc3ccc4c(c3)OCO4)[nH]2)c1', 10),
  ('CS(=O)(=O)c1ccc(-c2nnc(-c3ccccc3NCc3ccncc3)[nH]2)cc1', 0.1),
  ('c1ccc(-c2nnc(Nc3ccc4c(c3)OCO4)[nH]2)c(NCc2ccc3[nH]ncc3c2)c1', 1),
  ('c1ccc(-c2nnc(Nc3ccc4c(c3)OCCO4)[nH]2)c(NCc2ccncc2)c1', 1),
  ('c1cncc(CNc2ncccc2-c2nnc(Nc3ccc4c(c3)OCCO4)o2)c1', 0.01);

====

# System: bovine tubulin
# ASSAY REMARKS: In vitro tubulin polymerization assay (turbidity at 340 nm)
# Type: biochemical
# MEASUREMENT SETUP: 10 μM compound, 30 minute data point, vs 1% DMSO control
OBSERVABLE: Tubulin Assay: percent inhibition at 10 μM based on 30 minute data

INSERT INTO results (compound, observed_value) VALUES
  ('c1cnc(NCc2ccc3c(c2)OCO3)c(-c2nnc(Nc3ccc4c(c3)OCO4)o2)c1', '76%'),
  ('c1cnc(NCc2ccncc2)c(-c2nnc(Nc3ccc4c(c3)OCO4)[nH]2)c1', '77%'),
  ('COc1cccc(CNc2nnc(-c3cccnc3Nc3cc(OC)cc(OC)c3)[nH]2)c1', '100%'),
  ('COc1cccc(-c2nnc(-c3ccccc3NCc3ccc4c(c3)OCO4)[nH]2)c1', '71%'),
  ('COc1cccc(Nc2nnc(-c3ccccc3NCc3ccncc3)[nH]2)c1', '79%'),
  ('c1cnc(NCc2ccc3c(c2)OCCO3)c(-c2nnc(-c3ccc4c(c3)OCO4)[nH]2)c1', '21%'),
  ('Cn1nc(-c2cccnc2NCc2ccncc2)nc1Nc1ccc2c(c1)OCO2', '32%'),
  ('COc1cc(CNc2ccccc2-c2nnc(-c3cccc(Br)c3)[nH]2)cc(OC)c1', '42%'),
  ('COc1cccc(Nc2nnc(-c3cccnc3NCc3ccc4c(c3)OCO4)[nH]2)c1', '80%'),
  ('COc1ccc(Nc2nnc(-c3cccnc3NCc3cccnc3)[nH]2)cc1', '20%'),
  ('c1coc(CNc2ncccc2-c2nnc(Nc3ccc4c(c3)OCCO4)o2)c1 [Compound 164]', '73%'),
  ('COc1cccc(Nc2nc(-c3cccnc3NCc3ccncc3)nn2C)c1', '29%'),
  ('c1ccc(-c2nnc(Nc3ccc4c(c3)OCO4)o2)c(NCc2cn[nH]c2)c1', '81%'),
  ('CS(=O)(=O)c1ccc(-c2nnc(-c3ccccc3NCc3ccncc3)[nH]2)cc1', '84%'),
  ('c1cnc(NCc2ccc3c(c2)CCO3)c(-c2nnc(Nc3ccc4c(c3)OCO4)[nH]2)c1', '67%'),
  ('c1ccc(-c2nnc(Nc3ccc4c(c3)OCO4)[nH]2)c(NCc2ccc3[nH]cnc3c2)c1', '41%'),
  ('c1ccc(-c2nnc(Nc3ccc4c(c3)OCCO4)o2)c(NCc2ccc3ncccc3c2)c1', '99%');

All figures here come from patent US20090048301A1.
